Data provenance: patent US20060003980A1

- target: Csk (Homo sapiens, UniProt P41240)
- Construct: GST (glutathione-S-transferase); made in house; host or cells: E. coli (pGEX vector)
- testDetails: Tyrosine kinase activity of Csk using poly E4Y and 32P-ATP
- Assay type: biochemical
- conditionSummary: * = Extrapolated value from the graph
measuredMetric: IC50 (µM)

Reference set, count: 2
INSERT INTO results (compound, measuredmetric, unitstext, result) VALUES
  ('NC(=O)C(N)Cc1ccc(O)cc1.[OH][Co][Cl] (stereo not shown)', 'IC50', 'µM', 330),
  ('NC(=O)CCC(N)C(N)=O.[Cl][Co][Cl] (stereo not shown)', 'IC50', 'µM', 361);

1 = NC(=O)CCC(N)C(=O)[O][Co][Cl] (stereo not shown) [Complex 21]
2 = Nc1ccccc1N.[Cl-].[Cl-].[Co+2]
Ask | # query: argmin of IC50 over 1 and 2 In your reply, give the label of the chosen option.
Reply | 2

###

IC50 values for the compounds below.
- target: Src (Homo sapiens)
- Sequence (P12931 whole entry): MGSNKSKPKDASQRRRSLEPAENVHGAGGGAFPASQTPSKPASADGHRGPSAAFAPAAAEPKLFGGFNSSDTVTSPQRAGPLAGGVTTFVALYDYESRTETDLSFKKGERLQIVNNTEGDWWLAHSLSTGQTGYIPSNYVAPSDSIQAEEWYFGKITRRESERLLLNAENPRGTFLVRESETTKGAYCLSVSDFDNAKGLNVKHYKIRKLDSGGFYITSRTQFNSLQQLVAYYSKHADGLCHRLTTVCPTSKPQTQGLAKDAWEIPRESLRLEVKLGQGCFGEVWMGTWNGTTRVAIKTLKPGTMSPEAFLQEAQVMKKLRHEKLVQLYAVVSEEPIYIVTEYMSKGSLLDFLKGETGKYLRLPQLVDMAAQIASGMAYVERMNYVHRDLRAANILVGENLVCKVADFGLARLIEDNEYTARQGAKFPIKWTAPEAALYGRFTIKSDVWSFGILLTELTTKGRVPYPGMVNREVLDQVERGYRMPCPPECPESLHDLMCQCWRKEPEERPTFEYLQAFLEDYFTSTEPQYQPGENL
- testDetails: Tyrosine kinase activity of Src using poly E4Y and 32P-ATP
- Assay type: biochemical
Write down the numeric answer in µM and omit the unit.

Reference set, count: 2
INSERT INTO measurements (compound, result) VALUES
  ('NCC(N)=O.[Cl-].[Cl][Co][Cl].[Na+] [Complex 17]', 56),
  ('NC(=O)CCC(N)C(N)=O.[Cl][Co][Cl] (stereo not drawn) [Complex 22]', 71);

Ask | I'd like to know its IC50. The compound in question is O=Cc1ccccc1[O-].O=Cc1ccccc1[O-].[Co+2] [Complex 44, Co(salicylaldehyde)2]
Reply | 113
